# target.or.system: human Orexin type 2 receptors (Homo sapiens (Human))
# Sequence (O43614 whole entry): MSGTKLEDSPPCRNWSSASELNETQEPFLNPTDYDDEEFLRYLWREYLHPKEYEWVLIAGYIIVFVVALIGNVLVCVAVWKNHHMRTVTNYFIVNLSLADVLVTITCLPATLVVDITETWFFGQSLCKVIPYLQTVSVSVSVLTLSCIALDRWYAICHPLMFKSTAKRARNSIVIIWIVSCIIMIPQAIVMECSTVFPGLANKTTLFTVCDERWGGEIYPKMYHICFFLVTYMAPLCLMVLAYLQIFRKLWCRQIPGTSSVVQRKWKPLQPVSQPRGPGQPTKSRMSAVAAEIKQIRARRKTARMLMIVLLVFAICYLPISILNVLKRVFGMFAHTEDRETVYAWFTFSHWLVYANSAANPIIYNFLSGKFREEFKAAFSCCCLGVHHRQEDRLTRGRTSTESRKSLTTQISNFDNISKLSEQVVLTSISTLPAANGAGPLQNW
# assay.text: Scintillation Proximity Assay (SPA) binding assay, [3H]EMPA displacement, HEK-hOX2 membranes
# measurement.context: Table 2, [3H]EMPA 2 nM
Exam item: assign 1 to entries whose OX2 pKi (SPA binding) is below 6 and -1 to entries at or above 6. Note that a value of exactly 6 receives -1.

compound	assigned.class
Cc1ccc(-n2nccn2)c(C(=O)N2C3CC(C3)[C@@H](C)C2CNc2nc3ccc(F)cc3o2)n1 (mixture of isomers) [Example 218]	1
C[C@@H]1C2CC(C2)N(C(=O)c2cc(Cl)ccc2-n2nccn2)C1CNc1nc2cccnc2o1 (mixture of isomers) [Example 242]	1
C[C@@H]1C2CC(C2)N(C(=O)c2cc(Cl)ccc2-n2nccn2)C1CNc1nc2cccnc2s1 (single isomer, unassigned) [Example 236]	1

Problem: Criterion: OX2 pKi (SPA binding) strictly below 6. Is it met by C[C@@H]1C2CC(C2)N(C(=O)c2cc(F)ccc2-n2nccn2)C1CNc1cnc2cc(F)ccc2n1 (stereo in doubt) [Example 224] ?
Result: -1

Problem: Let us now turn to Cc1ccc(-n2nccn2)c(C(=O)N2C3CC(C3)[C@@H](C)C2CNc2cnc3cc(F)ccc3n2)n1 (mixture of isomers) [Example 198]
Result: -1

* * *

# target.or.system: human Orexin type 1 receptors (Homo sapiens (Human), UniProt O43613)
# Sequence (O43613 whole entry): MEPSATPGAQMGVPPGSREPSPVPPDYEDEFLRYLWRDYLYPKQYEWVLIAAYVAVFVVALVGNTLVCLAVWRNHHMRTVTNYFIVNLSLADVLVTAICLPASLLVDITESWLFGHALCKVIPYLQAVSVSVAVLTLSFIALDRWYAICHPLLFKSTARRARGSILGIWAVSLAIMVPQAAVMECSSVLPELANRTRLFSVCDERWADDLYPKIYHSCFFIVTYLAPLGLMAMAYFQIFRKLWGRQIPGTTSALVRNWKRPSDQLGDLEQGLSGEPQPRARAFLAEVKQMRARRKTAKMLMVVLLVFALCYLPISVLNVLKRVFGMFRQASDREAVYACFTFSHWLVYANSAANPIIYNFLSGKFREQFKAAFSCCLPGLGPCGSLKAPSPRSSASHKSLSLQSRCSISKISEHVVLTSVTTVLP
# assay.text: Intracellular calcium measurement (FLIPR), antagonism of Orexin-A at EC80 in CHO-hOX1 cells
metric.name: Ki (µM)
// units = µM; emit number, no label

compound	Ki / µM
Cc1ccc(-c2nccs2)c(C(=O)N2C(COc3ccc(F)cc3)CC3CC2C3)c1 (racemic) [Example 7]	0.00708
Cc1ccc(-c2ncccn2)c(C(=O)N2C(COc3ccc(F)cc3)CC3CC2C3)c1 (single isomer, unassigned) [Example 17]	0.0151
Cc1ccc(-c2ncccn2)c(C(=O)N2C(COc3ccc(F)cc3)CC3CC2C3)n1 (racemic) [Example 13]	0.00776

# ---- query compound ----
Problem: Record request: Ki value, item Cc1ccc(-n2nccn2)c(C(=O)N2C(COc3ccc(F)cc3)CC3CC2C3)c1 (single isomer, unassigned) [Example 12]
Result: 0.0275

* * *

# target.or.system: human Orexin type 2 receptors (Homo sapiens (Human))
# assay.text: Intracellular calcium measurement (FLIPR), antagonism of Orexin-A at EC80 in CHO-hOX2 cells
metric.name: log10(Ki) (log10 of the value in nM)
All values: base-10 log of Ki in nM.

Problem: Record request: log10(Ki) value, item Cc1ccc(-c2ncccn2)c(C(=O)N2C(COc3ccc(Cl)cn3)CC3CC2C3)c1 (single isomer, unassigned) [Example 33]
Result: 2.04

Problem: Let us now turn to Cc1ccc(-c2nccs2)c(C(=O)N2C(COc3ccc(F)cc3)CC3CC2C3)c1 (single isomer, unassigned) [Example 9]
Result: 1.90

Problem: Let us now turn to Cc1ccc(-c2nccs2)c(C(=O)N2C(COc3ccc(F)cn3)CC3CC2C3)c1 (single isomer, unassigned) [Example 26]
Result: 2.26

Problem: Let us now turn to Cc1nc(C(=O)N2C3CC(C3)C(C)C2COc2nccc3ccccc23)c(-c2ccccc2)s1 (mixture of isomers) [Example 83]
Result: 1.67

Problem: Let us now turn to Cc1ccc(-c2ncccn2)c(C(=O)N2C(COc3ccc(F)cn3)CC3CC2C3)n1 (single isomer, unassigned) [Example 22]
Result: 2.24

Problem: Let us now turn to Cc1ccc(-c2nccs2)c(C(=O)N2C(COc3ccc(F)cc3)CC3CC2C3)n1 (single isomer, unassigned) [Example 6]
Result: 1.97

Problem: Let us now turn to Cc1ccc(-c2nccs2)c(C(=O)N2C(COc3ccc(F)cc3)CC3CC2C3)n1 (racemic) [Example 4]
Result: 2.21

Problem: Let us now turn to Cc1ccc(-c2ncccn2)c(C(=O)N2C(COc3ccc(Cl)cn3)CC3CC2C3)c1 (racemic) [Example 32]
Result: 2.71

Problem: Let us now turn to Cc1ccc(-c2ncccn2)c(C(=O)N2C(COc3ccc(C(F)(F)F)cn3)CC3CC2C3)c1 (single isomer, unassigned) [Example 36]
Result: 2.30
